Cited source: ChEMBL document CHEMBL1961873

Please respond with reported inhibition for every item in the list.
target: Mitogen-activated protein kinase 1 (Homo sapiens); details: at 0.1 µM;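 further: reported figure is an averaged percent inhibition of the kinase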
Answers are plain numbers, in %.

See these solved cases before continuing.
CS(=O)(=O)CCNCc1ccc(-c2ccc3ncnc(Nc4ccc(OCc5ccccc5)c(C(F)(F)F)c4)c3c2)o1; 4.58
Cc1cccc2c1NC(=O)/C2=N\Nc1ccc(S(N)(=O)=O)cc1; 2.25
COc1ccc(CNC(=O)c2ccc(-c3cc(-c4nnc(C)o4)ccc3C)cc2)cc1; 4.56
COc1ccc(-c2cc(-c3c[nH]nc3-c3ccccn3)ccn2)cc1; 4.07
CS(=O)(=O)CCNCc1coc(-c2ccc3ncnc(Nc4ccc(OCc5ccccc5)cc4)c3c2)c1; 2.46
COC(=O)c1sc(-n2cnc3cc(OC)c(OC)cc32)cc1OCc1ccccc1C(F)(F)F; 4.72
CC1=C(C(=O)Nc2cc(Cl)c3[nH]ncc3c2)C(c2ccc(C(F)(F)F)cc2)CC(=O)N1 (stereo not given); 7.37
CCn1c(-c2nonc2N)nc2c(C#CC(C)(C)O)ncc(OC3CCNCC3)c21; 4.51
[O-][S+]1CCN(Cc2ccc(-c3ccc4ncnc(Nc5ccc(OCc6cccc(F)c6)c(Cl)c5)c4c3)o2)CC1; 7.21
Cc1ccc(O)cc1Nc1ccnc2cc(-c3ccccn3)ccc12; -0.57

Below are some molecules; for each one, tell me its inhibition.
1. CCN(CC)S(=O)(=O)c1ccc(OC)c(Nc2ncc(-c3ccccc3)o2)c1
2. CCCN1CCC(c2ccc(Nc3nc(Nc4cc(F)ccc4C(N)=O)c4cc[nH]c4n3)c(OC)c2)CC1
3. COc1cc(Nc2nccc(Nc3ccc4c(C)n[nH]c4c3)n2)cc(OC)c1OC
4. Fc1ccc(-c2nn3ccccc3c2-c2ccncc2)cc1
5. COc1cc2c(cc1Nc1nc(Nc3ccsc3C(N)=O)c3cc[nH]c3n1)N(C(=O)CN(C)C)CCC2(C)C

### Response
1. -1.7
2. 9.4
3. 0.66
4. 0.83
5. 4.87

----------
Please respond with reported inhibition for every item in the list.
molecular target: Casein kinase I isoform alpha (Homo sapiens) (UniProt P48729); conditions: at 1 µM
Sequence (P48729 2-337 limits assumed): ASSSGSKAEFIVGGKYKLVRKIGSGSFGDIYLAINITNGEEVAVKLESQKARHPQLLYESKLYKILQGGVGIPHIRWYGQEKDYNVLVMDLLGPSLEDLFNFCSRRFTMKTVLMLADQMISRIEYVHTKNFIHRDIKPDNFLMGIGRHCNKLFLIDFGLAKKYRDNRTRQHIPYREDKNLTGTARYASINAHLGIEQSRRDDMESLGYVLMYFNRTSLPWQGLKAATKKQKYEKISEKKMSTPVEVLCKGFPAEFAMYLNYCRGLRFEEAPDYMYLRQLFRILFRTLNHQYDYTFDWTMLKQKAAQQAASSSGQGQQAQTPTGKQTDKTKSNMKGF
Answers are plain numbers, in %.

See these solved cases before continuing.
CCn1c(-c2nonc2N)nc2c(C#CC(C)(C)O)ncc(OC3CCNCC3)c21; 8.85
O=C(Nc1n[nH]c2cc(-c3ccc(F)cc3)ccc12)C1CC1; 7.14
CCOc1ccc2c(-c3ccnc(Nc4cccc(C(F)(F)F)c4)n3)cnn2n1; 0.35
[O-][S+]1CCN(Cc2ccc(-c3ccc4ncnc(Nc5ccc(OCc6cccc(F)c6)c(Cl)c5)c4c3)o2)CC1; 4.04
COC(=O)Nc1nc2ccc(Oc3ccc(NC(=O)Nc4cccc(Cl)c4)cc3)cc2[nH]1; 0.94
Fc1ccc(-c2nn3ccccc3c2-c2ccncc2)cc1; 58.4
NS(=O)(=O)c1ccc(N/N=C2\C(=O)Nc3ccc4ncccc4c32)cc1; 21.3
CS(=O)(=O)CCNCc1coc(-c2ccc3ncnc(Nc4ccc(OCc5ccccc5)cc4)c3c2)c1; 4.42
O=S(=O)(CCNCc1ccc(-c2ccc3ncnc(Nc4ccc(OCc5cccc(F)c5)c(Cl)c4)c3c2)o1)c1ccccc1; 6.02

Continue with the compound presented below.
### Prompt Retrieve inhibition on Casein kinase I isoform alpha (Homo sapiens) (UniProt P48729); query CCc1nn2ncccc2c1-c1ccnc(NC2CC2)n1
### Response 15.9
